The compounds listed here are annotated with their pIC50.
# Tested on: A549
# protocolSummary: Cytotoxicity against human A549 cells after 48 hrs by MTT assay
# Format: functional, cell-based
# assayConditions: Homo sapiens, A549, 48 h
pIC50: −log10 of the molar value.
measuredProperty: pIC50

>>> assayresult("O=C(C[n+]1cn(Cc2c3c(cc4c2OCC4)OCC3)c2ccccc21)c1ccc(Br)cc1")
4.79
>>> assayresult("Cc1cc2c(cc1C)[n+](Cc1ccc(Br)cc1)cn2Cc1c2c(cc3c1OCC3)OCC2")
5.16
>>> assayresult("COc1ccc(C(=O)C[n+]2cn(Cc3c4c(cc5c3OCC5)OCC4)c3cc(C)c(C)cc32)cc1")
4.81
>>> assayresult("Cc1cc2c(cc1C)[n+](CC(=O)c1ccc3ccccc3c1)cn2Cc1c2c(cc3c1OCC3)OCC2")
5.11

The values you see were collected from ChEMBL document CHEMBL4049402.
